B1: CIB1 (parent)
chain: DLSRLVNCLTGEGEDTRLSASEMK

Variants of: B1
Assay: protein stability index of a GFP-peptide fusion (GPS, HEK-293T) (PSI 1-6); higher = more stable;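 also: lentivirally expressed fusions sorted by FACS into six bins by GFP to DsRed ratio, PSI derived from sequencing read proportions per bin multiplied by bin number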
Conditions: c terminus: a fixed tail appended
Reported protein stability index values are given for each entry in this list.

INSERT INTO assay_data (mutations, test_result) VALUES
  ('R4W', 3.45),
  ('S21V', 2.17),
  ('D1N', 2.89),
  ('V6T', 3.08),
  ('R4E', 3.68),
  ('L2Y', 3.82),
  ('M23F', 3.12),
  ('L18V', 3.63),
  ('M23I', 3.03),
  ('E14K', 2.94);

Next variant, please.
// query # get_value(readout='protein stability index', item= `R4P` )
// result 3.66
